Target: full-length human GLP-1R with an N-terminal FLAG tag, overexpressed on HEK-293T cells (human, UniProt P43220 24-463)
Test: cell-based or functional assay
Starred links: 1 amine or outer side, 2 acyl side, 3 side chain; linkers in the order of their positions; H or OH if unused. Non-standard residues stand in square brackets, D forms with d. Groups on a side chain read outwards from the residue. No end group written: not given here. *: point of attachment. C18 diacid = O=C(O)CCCCCCCCCCCCCCCCC(=O)*; γGlu = O=C(O)[C@H](CCC(=O)[*:2])N[*:1]; NMeY = CN[C@@H](Cc1ccc(O)cc1)C(=O)O; AEEA = NCCOCCOCC(=O)O; Aib = CC(C)(N)C(=O)O
Strictly below 100 nM in Human GLP1R cAMP EC50, HEK293T: 1. Otherwise: 0.

Please review the following examples before continuing.
{"binder": "[NMeY][Aib]EGTFISDYSIALDR[Aib]K([AEEA-AEEA-γGlu-γGlu-C18 diacid])Q[Aib]NFVNWLLAQSPSSGAPPPS-NH2 [Compound No. 293]", "class": 0}
{"binder": "[NMeY]GEGTFISDYSI[Aib]LDR[Aib]AQ[Aib]K([AEEA-AEEA-γGlu-γGlu-C18 diacid])FVNWLLAQRG-OH [Compound No. 205]", "class": 1}
{"binder": "Me-Y[Aib]EGTFISDYSIALDRAAQQK([AEEA-AEEA-γGlu-γGlu-C18 diacid])FVNWLLAQSPG-OH [Compound No. 178]", "class": 0}
{"binder": "[NMeY][Aib]EGTFISDYSI[Aib]LDR[Aib]AQAK([AEEA-AEEA-γGlu-γGlu-C18 diacid])FVNWLLAQRG-OH [Compound No. 215]", "class": 1}
{"binder": "[NMeY][Aib]EGTFISDYSI[Aib]LDR[Aib]HQ[Aib]K([AEEA-AEEA-γGlu-γGlu-C18 diacid])FVNWLLAQRG-OH [Compound No. 201]", "class": 1}
{"binder": "YXEGTFISDYSIAXDKAAQAXFVEWLLAQRG (N-terminus H; Aib at 2, 14; Km at 21 = Lys(2OEGgEgE-C18DA); C-terminus OH) [Compound No. 158]", "class": 0}
{"binder": "Me-Y[Aib]EGTFISDYSIALDKIAQ[Aib]K([AEEA-AEEA-γGlu-γGlu-C18 diacid])FVNWLLAQRG-OH [Compound No. 175]", "class": 1}
{"binder": "Me-Y[Aib]EGTFISDYSIALDKAAQ[Aib]K([AEEA-AEEA-γGlu-γGlu-C18 diacid])FVNWLLAQRG-OH [Compound No. 176]", "class": 1}

Next up:
Please determine if YXEGTFISDYSIAXDKAXQADFVEWLLAQRG (N-terminus H; Aib at 2, 14; Km at 18 = Lys(2OEGgE-C18DA); C-terminus OH) [Compound No. 165] is below 100 nM in terms of Human GLP1R cAMP EC50, HEK293T.
0
